Numbers sourced from PubChem BioAssay (Tox21).

- Assay: qHTS assay to identify small molecule antagonists of the estrogen receptor beta (ER-beta) signaling pathway - cell viability counter screen (AID 1259382); also: nearly all actives have a fitted effect of over 55% in size
- Test Context: ER-beta-UAS-bla HEK293T viability, CellTiter-Glo luminescence, 16 h; series mostly up to 92.4 µM
Results filed as inconclusive are left out. Activity calls are given as the source filed them. Calls follow the shape of the dose curve; as a rule, active = well fitted cell-killing curve with a large enough effect in the repeat runs; inconclusive = weak or mixed curves; inactive = flat fitted curve, though single readings scatter.
# valid calls are active, inactive; nothing else

Worked examples, 6 compounds total:
Cc1c[nH]c(=O)[nH]c1=O = inactive
CC1(C)[C@H]2CC[C@]1(C)C(=O)C2 = inactive
CC1CCC(C(C)(C)O)CC1 (stereo not drawn) = inactive
CCOC=C(C(=O)OCC)C(=O)OCC = inactive
CC/C(=C(/c1ccc(O)cc1)c1ccc(OCCN(C)C)cc1)c1ccccc1 = active
Cc1ccc(S(=O)(=O)C(I)I)cc1 = active

Check the results log: what was the call for Nc1ccc(F)c([N+](=O)[O-])c1 ? inactive

Check the results log: what was the call for CCCCCCCC/C=C\CCCCCCCC(=O)N(CCO)CCO ? inactive

Check the results log: what was the call for C/C(=N\[Si](C)(C)C)O[Si](C)(C)C ? inactive

Check the results log: what was the call for O=C(N[C@H](CO)[C@H](O)c1ccc([N+](=O)[O-])cc1)C(Cl)Cl ? inactive

Check the results log: what was the call for c1ccc2c(c1)-c1ccc3ccc4cccc5cc-2c1c3c45 ? inactive

Check the results log: what was the call for O=C1CCCCCCCCCCCCCC1 ? inactive

Check the results log: what was the call for CC(C)(C)C1=CC(=O)C(C(C)(C)C)=CC1=O ? inactive

====

- Assay: qHTS assay to identify small molecule antagonists of the constitutive androstane receptor (CAR) signaling pathway - cell viability counter screen (AID 1224837); also: nearly all actives have a fitted effect of over 45% in size
- Test Context: HepG2-CYP2B6-hCAR viability, CellTiter-Fluor, 23 h, co-treated with 50 nM CITCO; series mostly up to 92.4 µM
- Procedure: National Center for Advancing Translational Sciences [NCATS] NIH Chemical Genomics Center [NCGC] U.S. Environmental Protection Agency [EPA] National Institutes of Environmental Health Sciences [NIEHS] National Toxicology Program [NTP] […] A double-stable (hCAR and CYP2B6-2.2kb) transfected cell line, derived from human hepatoma (HepG2) cells, was utilized for the duration of the quantitative high-throughput screens. […] The fluorescence intensity in the plates was then measured using a ViewLux plate reader.
Results filed as inconclusive are left out. Active and inactive are the calls of the source. Calls come from the whole dose curve; as a rule, active = well fitted cell-killing curve with a large enough effect in the repeat runs; inconclusive = weak or mixed curves, or effect the other way; inactive = flat fitted curve, though single readings scatter.
# valid calls are 1 (active), 0 (inactive); nothing else

CCOC(=O)[C@H](O)[C@@H](O)C(=O)OCC = 0
Nc1ccc(Oc2cccc(Oc3ccc(N)cc3)c2)cc1 = 0
CCc1cccc(CC)c1 = 0
CC(O)(c1ccc(Cl)cc1)c1ccc(Cl)cc1 = 0
c1ccc(-c2ccc(C(c3ccccc3)n3ccnc3)cc2)cc1 (configuration not stated) = 0
C=CC(C)(C)O = 0
CCOC(=O)OC(=O)OCC = 0
O=c1cc[nH]cc1 = 0
CC1(C)[C@H]2CC[C@]1(C)C(=O)C2 = 0
C/C=C/C(=O)OCC(C)C = 0

Check the results log: what was the call for O=C(c1ccccc1)c1ccc(Cl)cc1 ? 0

Check the results log: what was the call for Cn1ccnc1 ? 0

Check the results log: what was the call for CCN(CC)c1ccc2c(c1)Oc1cc(N(CC)CC)ccc1C21OC(=O)c2ccccc21 ? 1
